// data source = the Human Domainome abundance scans (Beltran et al. 2025)

B1: POU domain, class 4, transcription factor 1, residues 266 to 347; numbered along this chain, Q01851 (parent)
chain: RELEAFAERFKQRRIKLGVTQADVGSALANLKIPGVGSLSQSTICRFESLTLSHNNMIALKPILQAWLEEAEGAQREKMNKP

Variants of: B1
Test Protocol: abundance fitness (aPCA) (normalised: wild type 0, dead -1); higher = more abundant; growth selection in yeast, the domain comes from the species named
Conditions: Homo sapiens
Endpoint Name: abundance fitness
Please give the numeric answer without any surrounding text.

Ask: Requested read-out: abundance fitness. Entry: RELEAFAERFKQRRIKLGVTQADVGSALANLKIPGVGSLYQSTICRFESLTLSHNNMIALKPILQAWLEEAEGAQREKMNKP [S40Y]
Result: -0.307

Ask: Also RELEAFAERFKQRRIKLGVTQADVGSALANLKIPGVGSLNQSTICRFESLTLSHNNMIALKPILQAWLEEAEGAQREKMNKP [S40N] , if possible.
Result: -0.05

Ask: Also RELEAFAERFKQRRIKLGVTQADVGSALANLKIPGVGSLSQSTICRFESLTLSHNNMIALKPMLQAWLEEAEGAQREKMNKP [I63M] , if possible.
Result: -0.168

Ask: Also RELEAFAERFKQRRIKLGVTQADVGSAWANLKIPGVGSLSQSTICRFESLTLSHNNMIALKPILQAWLEEAEGAQREKMNKP [L28W] , if possible.
Result: -0.555

Ask: Also RELEAFAERFKQRRIKLGVTQADVGSALANLKIPGVGSLSQSTIRRFESLTLSHNNMIALKPILQAWLEEAEGAQREKMNKP [C45R] , if possible.
Result: 0.056

Ask: Also RELEAFAERFKQRRIKLGVTQADVGSALANLKIPGVGSLSQSTICRFESLTLSHNNMIALKPILQAWLEEAECAQREKMNKP [G73C] , if possible.
Result: -0.013

Ask: Also RELEAFAERQKQRRIKLGVTQADVGSALANLKIPGVGSLSQSTICRFESLTLSHNNMIALKPILQAWLEEAEGAQREKMNKP [F10Q] , if possible.
Result: -1.04

Ask: Also RELEAFAERFKQRRIKLGVTQADVGSALANLKIPGVYSLSQSTICRFESLTLSHNNMIALKPILQAWLEEAEGAQREKMNKP [G37Y] , if possible.
Result: -0.054
